Tested on: Pseudomonas aeruginosa
Test: Antimicrobial activity against Pseudomonas aeruginosa PA14 assessed as inhibition of biofilm formation after 24 hrs by spectrophotometry
Assay type: functional, organism-based
Conditions: PA14, 24 h
observationType: IC50 (µM)

input: Recorded IC50 of O=[N+]([O-])c1ccc(-c2cnc(NC3CCCC3)[nH]2)cc1 , please.
output: 20.2

1: CCCCCCCCCCN1c2nccc[n+]2C[C@@]1(O)c1ccc([N+](=O)[O-])cc1
2: CC(C)CN1c2nccc[n+]2C[C@@]1(O)c1ccccc1
input: Among 1 and 2 , which shows a numerically higher IC50 result? Write the label of whichever entry you select.
output: 2

---

Tested on: Salmonella typhimurium
Assay: Antimicrobial activity against Salmonella Typhimurium ATCC 14028 assessed as inhibition of planktonic cell growth at 40 uM after 24 hrs by […]
Assay type: functional, organism-based
Conditions: Salmonella enterica subsp. enterica serovar Typhimurium
The source made the active and inactive calls. No cut-off for these calls is given here.
Can you answer with just one of these options? active, inactive

input: Check the results log: what was the call for CCCCN1c2nccc[n+]2C[C@@]1(O)c1ccc(Cl)cc1 ?
output: inactive

Others:
input: Per the records of this test, what outcome belongs to COc1cccc(CNc2ncc(-c3ccc([N+](=O)[O-])cc3)[nH]2)c1 ?
output: inactive

input: Then CC(C)CN1c2nccc[n+]2C[C@@]1(O)c1ccc(Cl)c(Cl)c1 ?
output: active

input: Proceed to CC(C)CN1c2nccc[n+]2C[C@@]1(O)c1ccc(Br)cc1
output: active

input: Now give it for CC(C)CNc1ncc(-c2ccc(Cl)cc2)[nH]1 too.
output: active

input: Also, O[C@@]1(c2ccc(I)cc2)C[n+]2cccnc2N1Cc1ccccc1 please.
output: inactive

input: Also, CCCCCNc1ncc(-c2ccc(Br)cc2)[nH]1 please.
output: active
